Assay: yeast display, Sf9 membrane polyspecificity reagent, FACS + sequencing; frameworks hold sequencing errors
MEASURED PARAMETER: polyreactivity (PSR sort gate)

## Input Report polyreactivity (PSR sort gate) for QLQLQESGGGLVQAGGSLRLTCAASGYIFPTAIMRWYRQAPGTERKLVAASNPGSNTYYADSVKGRFTFSLDNAKNTVYLQMNSLTPEDAAVYSCAVSIWLDGTLDFWGQGTQVTVSS please.
## Output low polyreactivity

## Input Report polyreactivity (PSR sort gate) for QVQLVESGGGLVQAGGSIRLSCAASGITFTLYAMGWYRQAPGKEMELVAAITISAGSTYYADSVKGRFTISRDNAKNTVYLQINSLKPEDTAVYYCAAESYGSWYYYWGQGTQVTVSS please.
## Output high polyreactivity

## Input Report polyreactivity (PSR sort gate) for QGQLVESGGGLVQAGGSLRLSCAASGRIFVIYAMGWYRQAPGKERELVAAISSRGGTTYYADSVKGRFTISRDNAKNTVYLQMNSLKPEDTAGYYCNVARFYHIYDYWGQGTHVTVSS please.
## Output high polyreactivity

## Input Report polyreactivity (PSR sort gate) for QVQLVESGGGLVQAGGSLRLSCASSGITFDYYAMGWYRQAPGKERELVASISSDSSTYYADSVKGRFTISRDNAKNTVYLQMNSLKPEDTAVYYCNAGDTTFPFYYWGQGTQVTVSS please.
## Output low polyreactivity

## Input Report polyreactivity (PSR sort gate) for QVQLVESGGGLVQAGGSLRLSCAASGRIFYYNAMGWYRQAPGKERELVAAITKSSGSTYYADSVKGRFTISRDNAKNTVFLQMNSLKPEDTAVYYCAKDKYLVFGFVGGDYWGQGTQVTVSS please.
## Output low polyreactivity

## Input Report polyreactivity (PSR sort gate) for QVQLVESGAGLLQAGGSLRLSCAASGITLRRNTMGWYRQAPGKERELVAAITRSGGSTYYADSVKGRVTISRDNAKNTVYLQINSLKPEVTAVYYCAEGPSYGGPSHVYWRQGTQVTVSS please.
## Output high polyreactivity

Others:
## Input Report polyreactivity (PSR sort gate) for QVQLVESGGGLVQAGGSLRLSCAASGFIFTRNAMAWYRQAPGKEREMVAGISVRGGATYYADSVKGRFTLSRDNAKNSFYLQMNSLKPEDTAVYYCAARYWRGPRYDYWGQGTKVTVSS please.
## Output high polyreactivity

## Input Report polyreactivity (PSR sort gate) for QVQLVESGGGLGQAGGSLRLSCAASGIIFYPNAMGWYRQAPGKERELVAAISCRSGSTYYADSVKGRITISRDNEKNTVYLQMNSLKPEDTSVYYCAADRRRSYIWRYDYWGQGTQVTVSS please.
## Output low polyreactivity

## Input Report polyreactivity (PSR sort gate) for QVQLVESGGGLVQAGGSLRLSCASSGRTFFPYAKGWYRQAPGKEREFVAAITKTDDSTYYADSVKGRFTISRDNAKNTVYLQMNSLKPEDTAVYYCNAGDTQIRFYYWGQGTQVTVSS please.
## Output low polyreactivity

## Input Report polyreactivity (PSR sort gate) for QVQLVESGGGLVQAGGSLRLSCAASGSTFVRYAMGWYRQAPGKERELVAAIRWSSGSTYYADSVKGRFTISRDNAKNTVYLQMNSLKPEDTAVYYCAKRQYLYTSKYDYWGQGTQVTVSS please.
## Output high polyreactivity

## Input Report polyreactivity (PSR sort gate) for QVQLVESGGGLVQAGGSLRLSCAASGSILYVYAMGWYRQAPGKERELVAAISFSGGSTYYADSVKGRFTISRDNAKNTVYLQMNSLKPEDTAVYYCAADVSYDIYVEYDYWGQGTQVTVSS please.
## Output low polyreactivity
